Source listed as paper PMC10397247.

Form field: interaction score (one value per entry).
Biological target: T1, O9-bS
T1 chain: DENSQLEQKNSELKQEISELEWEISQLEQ
Assay: two-hybrid library CCNG1;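 also: natural log of median RNA to DNA barcode read ratio; higher means stronger binding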
Output: the number by itself.

Entry DKNSQLKQENSELEQEISELEWEISQLEQ [O1-bS] , interaction score reported as -1.23

Entry DKNSQLKQKISELKQENSELEWKISQLKQ [O6-bS] , interaction score reported as -0.588

Entry DKISQLKQEISELEQKNSELKWKNSQLKQ [O4-bS] , interaction score reported as 0.414
